Target: human TLR8 (Homo sapiens)
Sequence (Q9NR97 27-1041): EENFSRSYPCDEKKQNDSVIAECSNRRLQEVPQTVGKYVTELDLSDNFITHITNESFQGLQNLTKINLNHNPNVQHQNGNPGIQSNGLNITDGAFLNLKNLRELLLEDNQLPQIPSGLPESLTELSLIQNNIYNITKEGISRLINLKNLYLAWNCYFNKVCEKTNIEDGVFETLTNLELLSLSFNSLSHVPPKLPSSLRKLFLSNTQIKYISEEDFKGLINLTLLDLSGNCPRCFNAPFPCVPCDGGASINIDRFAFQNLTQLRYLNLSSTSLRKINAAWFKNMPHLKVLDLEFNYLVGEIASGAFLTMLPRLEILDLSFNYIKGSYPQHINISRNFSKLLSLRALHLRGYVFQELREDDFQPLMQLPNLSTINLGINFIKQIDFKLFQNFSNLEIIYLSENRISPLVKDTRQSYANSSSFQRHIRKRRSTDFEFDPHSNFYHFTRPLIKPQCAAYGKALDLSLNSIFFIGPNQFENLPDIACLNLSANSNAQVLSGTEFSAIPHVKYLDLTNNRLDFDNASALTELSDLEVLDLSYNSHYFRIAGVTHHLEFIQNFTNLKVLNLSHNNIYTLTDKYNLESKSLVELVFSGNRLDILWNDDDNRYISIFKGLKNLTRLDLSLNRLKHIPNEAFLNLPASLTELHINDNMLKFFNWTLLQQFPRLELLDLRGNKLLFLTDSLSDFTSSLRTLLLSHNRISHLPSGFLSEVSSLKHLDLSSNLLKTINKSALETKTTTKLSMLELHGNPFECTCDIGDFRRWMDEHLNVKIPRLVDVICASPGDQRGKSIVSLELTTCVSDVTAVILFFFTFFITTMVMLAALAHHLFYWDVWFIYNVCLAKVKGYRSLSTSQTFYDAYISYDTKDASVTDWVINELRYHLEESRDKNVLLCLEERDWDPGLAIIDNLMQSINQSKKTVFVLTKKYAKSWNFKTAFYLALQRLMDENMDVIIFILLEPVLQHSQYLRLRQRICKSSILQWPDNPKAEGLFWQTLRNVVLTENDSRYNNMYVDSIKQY
Test: TLR8 inhibition reporter assay (HEK-Blue cells, SEAP reporter, R848 stimulation)
Settings: HEK-Blue cells overexpressing human TLR8, R848 15.9 μM
readout-label: IC50
Record the result as a number with its unit.

Sample answers from the record:
>  <mol>
CCc1c(-c2ccc(OC)c(OC)c2)[nH]c2c(F)cc(C3CCN(CCNC)CC3)cc12

>  <experimental-target>
human TLR8 (Homo sapiens)

>  <IC50>
110 nM

$$$$
>  <mol>
COc1ccc(-c2[nH]c3ccc(C4CCN(CC(=O)NCCN5CCCC5)CC4)cc3c2CC(F)(F)F)cc1OC

>  <experimental-target>
human TLR8 (Homo sapiens)

>  <IC50>
117 nM

$$$$
>  <mol>
COc1ccc(-c2[nH]c3ccc(C4CCN(CC(=O)N5CCN(C(C)=O)CC5)CC4)cc3c2CC(F)(F)F)cc1OC

>  <experimental-target>
human TLR8 (Homo sapiens)

>  <IC50>
109 nM

$$$$

Q: Please report the recorded IC50 for "COc1ccc(-c2[nH]c3ccc(C4CCN(C5CCN(C6CC6)CC5)CC4)cc3c2C)cc1OC" .
A: 151 nM

---

Biological target: human TLR7 (Homo sapiens, UniProt Q9NYK1)
Sequence (Q9NYK1 27-1049): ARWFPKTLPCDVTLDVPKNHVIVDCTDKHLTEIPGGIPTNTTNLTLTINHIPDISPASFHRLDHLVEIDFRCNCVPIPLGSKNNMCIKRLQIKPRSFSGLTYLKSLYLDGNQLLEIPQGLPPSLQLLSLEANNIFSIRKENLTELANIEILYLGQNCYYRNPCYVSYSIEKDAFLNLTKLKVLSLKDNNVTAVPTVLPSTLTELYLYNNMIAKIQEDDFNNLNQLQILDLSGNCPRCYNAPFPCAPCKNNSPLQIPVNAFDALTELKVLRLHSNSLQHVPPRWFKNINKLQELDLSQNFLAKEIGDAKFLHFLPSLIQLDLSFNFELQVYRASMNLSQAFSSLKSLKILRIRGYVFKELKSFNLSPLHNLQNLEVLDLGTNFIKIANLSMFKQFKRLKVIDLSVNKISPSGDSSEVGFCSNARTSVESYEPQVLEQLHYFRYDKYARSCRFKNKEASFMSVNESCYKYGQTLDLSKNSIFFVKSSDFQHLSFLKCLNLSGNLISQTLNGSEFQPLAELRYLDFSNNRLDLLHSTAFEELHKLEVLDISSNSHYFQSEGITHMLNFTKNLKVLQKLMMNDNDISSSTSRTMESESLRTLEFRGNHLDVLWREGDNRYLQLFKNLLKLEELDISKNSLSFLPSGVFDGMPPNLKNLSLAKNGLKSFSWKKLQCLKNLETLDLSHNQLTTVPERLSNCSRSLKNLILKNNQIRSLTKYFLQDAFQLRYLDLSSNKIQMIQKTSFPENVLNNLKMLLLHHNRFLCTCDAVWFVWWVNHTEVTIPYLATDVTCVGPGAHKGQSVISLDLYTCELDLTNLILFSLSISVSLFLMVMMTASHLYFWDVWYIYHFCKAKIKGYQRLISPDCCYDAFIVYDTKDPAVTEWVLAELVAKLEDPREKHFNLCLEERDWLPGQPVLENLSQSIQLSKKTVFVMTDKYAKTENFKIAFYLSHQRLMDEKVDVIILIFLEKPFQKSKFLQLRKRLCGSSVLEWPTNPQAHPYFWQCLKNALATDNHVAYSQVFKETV
Test: TLR7 inhibition reporter assay (HEK-Blue cells, SEAP reporter, gardiquimod stimulation)
Conditions: HEK-Blue cells overexpressing human TLR7, gardiquimod 7.5 μM
Description: TLR7/8/9 Inhibition Reporter Assays Briefly, cells are seeded into Greiner 384 well plates (15000 cells per well for TLR7, 20,000 for TLR8 and 25,000 for TLR9) and then treated with test compounds in DMSO to yield a final dose response concentration range of 0.05 nM-50 μM. […] The percent inhibition is determined as the % reduction in the HEK-Blue signal present in wells treated with agonist plus DMSO alone compared to wells treated with a known inhibitor.
readout-label: IC50 (nM)
Provide the reading as a plain figure in nM.

Sample answers from the record:
>  <molecule>
COc1ccc(-c2[nH]c3ccc(C4CCN(Cc5ccc(N(C)C)cc5)CC4)cc3c2C(C)C)cc1OC [Example 270]

>  <unit-tag>
nM

>  <IC50>
191

$$$$
>  <molecule>
CCC(C)N1CCC(N2CCC(c3ccc4[nH]c(-c5ccc(OC)c(OC)c5)c(C)c4c3)CC2)CC1 (centres unmarked) [Example 71]

>  <unit-tag>
nM

>  <IC50>
537

$$$$
>  <molecule>
COc1ccc(-c2[nH]c3ccc(C4CCN(C(=O)CN5CCC[C@@H](C(=O)N6CC7CNCC7C6)C5)CC4)cc3c2C(C)C)cc1OC (some centres unmarked) [Example 310]

>  <unit-tag>
nM

>  <IC50>
290

$$$$
>  <molecule>
COc1ccc(-c2[nH]c3ccc(C4CCN(C(=O)CN5CCCC(CO)C5)CC4)cc3c2C(C)C)cc1OC (centres unmarked) [Example 226]

>  <unit-tag>
nM

>  <IC50>
16

$$$$

Pending molecule:
Q: Please report the recorded IC50 for COc1ccc(-c2[nH]c3ccc(C4CCN(C5CCN(CC6CC6)CC5)CC4)cc3c2C)cc1OC [Example 3] .
A: 339

---

Target: human TLR8 (Homo sapiens)
Assay: TLR8 inhibition reporter assay (HEK-Blue cells, SEAP reporter, R848 stimulation)
Conditions: HEK-Blue cells overexpressing human TLR8, R848 15.9 μM
IC50 values by entry
Provide the reading as a plain figure in nM.

Sample answers from the record:
>  <molecule>
CCc1c(-c2ccc(OC)c(OC)c2)[nH]c2ccc(C3CCN(CC(C)C(F)(F)F)CC3)cc12 (stereo not drawn)

>  <IC50 (nM)>
776

$$$$
>  <molecule>
COc1ccc(-c2[nH]c3ccc(C4CCN(C5CCCN(C6CCCC6)CC5)CC4)cc3c2C)cc1OC (stereo not drawn)

>  <IC50 (nM)>
302

$$$$

Q: Please report the recorded IC50 for "COc1ccc(-c2[nH]c3ccc(C4CCN(Cc5cnc[nH]5)CC4)cc3c2C(C)C)cc1OC" .
A: 15

---

Molecular target: human TLR9 (Homo sapiens, UniProt Q9NR96)
Sequence (Q9NR96 26-1032): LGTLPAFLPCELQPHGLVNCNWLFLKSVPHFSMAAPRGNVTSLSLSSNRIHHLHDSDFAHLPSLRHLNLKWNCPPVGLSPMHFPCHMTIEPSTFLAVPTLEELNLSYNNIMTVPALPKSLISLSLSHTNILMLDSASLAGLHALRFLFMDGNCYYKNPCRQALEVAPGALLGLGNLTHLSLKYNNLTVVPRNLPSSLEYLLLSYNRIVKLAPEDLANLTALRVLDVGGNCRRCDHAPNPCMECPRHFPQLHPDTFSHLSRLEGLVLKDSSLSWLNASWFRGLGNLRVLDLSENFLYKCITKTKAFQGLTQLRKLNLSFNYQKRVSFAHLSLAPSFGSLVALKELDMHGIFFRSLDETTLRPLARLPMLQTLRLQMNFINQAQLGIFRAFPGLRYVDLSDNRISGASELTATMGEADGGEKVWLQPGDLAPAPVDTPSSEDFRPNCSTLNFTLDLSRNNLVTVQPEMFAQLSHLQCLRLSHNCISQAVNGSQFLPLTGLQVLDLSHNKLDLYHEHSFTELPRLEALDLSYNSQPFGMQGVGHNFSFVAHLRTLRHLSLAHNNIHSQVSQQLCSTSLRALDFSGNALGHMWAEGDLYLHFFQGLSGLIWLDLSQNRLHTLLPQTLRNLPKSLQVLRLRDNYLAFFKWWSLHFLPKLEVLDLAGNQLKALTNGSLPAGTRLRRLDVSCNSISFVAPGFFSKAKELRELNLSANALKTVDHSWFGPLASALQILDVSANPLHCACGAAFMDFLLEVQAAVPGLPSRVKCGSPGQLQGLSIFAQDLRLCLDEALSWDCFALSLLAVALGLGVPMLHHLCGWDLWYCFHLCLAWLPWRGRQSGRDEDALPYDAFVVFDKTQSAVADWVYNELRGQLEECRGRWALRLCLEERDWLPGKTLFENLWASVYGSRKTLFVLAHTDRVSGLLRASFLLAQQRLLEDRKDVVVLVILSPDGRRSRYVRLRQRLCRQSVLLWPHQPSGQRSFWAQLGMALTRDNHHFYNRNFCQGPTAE
Assay: TLR9 inhibition reporter assay (HEK-Blue cells, SEAP reporter, ODN2006 stimulation)
Details: HEK-Blue cells overexpressing human TLR9, ODN2006 5 nM
IC50 values by entry
Record the result as a number with its unit.

Sample answers from the record:
>  <mol>
CNCCN1CCC(c2ccc3[nH]c(-c4ccc(OC)c(OC)c4)c(CC(C)C)c3c2)CC1

>  <experimental-target>
human TLR9 (Homo sapiens, UniProt Q9NR96)

>  <recorded-measurement>
830 nM

$$$$
>  <mol>
CNCCN1CCC(c2ccc3[nH]c(-c4ccc(OC)c(OC)c4)c(CC4CC4)c3c2)CC1

>  <experimental-target>
human TLR9 (Homo sapiens, UniProt Q9NR96)

>  <recorded-measurement>
882 nM

$$$$

Pending compound:
Q: Write down the reported IC50 of "COc1ccc(-c2[nH]c3ccc(C4CCN(Cc5ccc(-n6ccnc6)cc5)CC4)cc3c2C(C)C)cc1OC" , test system: human TLR9 (Homo sapiens, UniProt Q9NR96).
A: 790 nM
